Recorded melting point, one value per entry.

CCC(=O)Nc1cc(-c2sc(CSC)nc2-c2cccc(Cl)c2)ccn1 [H 102-3]	118 to 119 °C

# lookup: melting point of CCC(=O)Nc1cc(-c2sc(C(C)OC(=O)c3ccccc3)nc2-c2cccc(C)c2)ccn1 (stereo not shown) [H 102-5]
102 to 103 °C

Try this compound next: Cc1cccc(-c2nc(-c3ccc(S(C)(=O)=O)cc3)sc2-c2ccnc(N3CCOCC3)c2)c1 [H 36-8]
200 to 202 °C

Try this compound next: Cc1cc(C)cc(-c2nc(NC(=O)C3CCCC3)sc2-c2ccncc2)c1 [23-198]
275 to 278 °C

Try this compound next: Cc1cccc(-c2nc(NC(=O)c3cccnc3)sc2-c2ccnc(F)c2)c1 [H 42-6]
229 to 231 °C

Try this compound next: CCc1nc(-c2cccs2)c(-c2ccnc(NC(C)=O)c2)s1 [H 30-4]
154 to 155 °C

Try this compound next: CCC(=O)Nc1cc(-c2sc(-c3ccc(S(C)(=O)=O)cc3)nc2-c2cccc(C)c2)ccn1 [H 98-2]
238 to 239 °C

----------
System: TNF-α production in THP-1 cells
Assay: Measurement of inhibitory activity of TNF-α production (LPS-stimulated THP-1 cells, ELISA), Reference Example K 2
Type: cell-based
Details: Homo sapiens, Reference Example H compounds, LPS 5 μg/mL, 4 hours, read-out: IC50 (inhibition of TNF-α production)
reportedEndpoint: IC50 (nM)

Cc1cccc(-c2nc(N)sc2-c2ccnc(NC3CCCCC3)c2)c1	2

(a) CCc1nc(-c2cccc(Cl)c2)c(-c2ccnc(NC3CCCCC3)c2)s1
(b) CCC(=O)Nc1cc(-c2sc(-c3ccc(S(C)(=O)=O)cc3)nc2-c2cccc(Cl)c2)ccn1
(c) Cc1cccc(-c2nc(N(C)C(=O)c3ccc(C)nc3)sc2-c2ccnc(NC3CCCC3)c2)c1
(d) CCc1nc(-c2cccc(Cl)c2)c(-c2ccnc(NC(C)=O)c2)s1
Hey, quick one: sort these by IC50, largest value first please. Quick reminder: the answer is the labels in the order asked.
d, c, a, b
(d: 120 nM, c: 82 nM, a: 55 nM, b: 21 nM)

----------
Target: human p38 MAP kinase (Homo sapiens, UniProt Q16539)
Construct: made in house; host or cells: Sf-21 insect cells, baculovirus (BAC-HP38 co-infected with BAC-caMKK3)
Sequence (Q16539 whole entry): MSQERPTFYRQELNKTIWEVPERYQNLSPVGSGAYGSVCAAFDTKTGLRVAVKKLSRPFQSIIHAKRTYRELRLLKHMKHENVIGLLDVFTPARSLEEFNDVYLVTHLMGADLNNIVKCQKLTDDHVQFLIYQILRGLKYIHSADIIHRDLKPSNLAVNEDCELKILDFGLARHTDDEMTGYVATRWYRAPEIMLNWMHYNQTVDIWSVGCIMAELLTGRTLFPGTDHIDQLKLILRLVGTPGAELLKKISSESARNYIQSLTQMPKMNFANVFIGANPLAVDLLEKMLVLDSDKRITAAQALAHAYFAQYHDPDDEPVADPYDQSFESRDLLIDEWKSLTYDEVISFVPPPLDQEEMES
Experiment: Inhibition of active type p38 MAP kinase (32P incorporation into Myelin Basic Protein), Reference Example K 1
Assay type: biochemical
Conditions: Reference Example H compounds, 30° C., 60 minutes
reportedEndpoint: IC50 (nM)

Cc1cccc(-c2nc(N)sc2-c2ccnc(NC3CCCCC3)c2)c1	9.9
CCc1nc(-c2cccc(Cl)c2)c(-c2ccnc(NC(C)=O)c2)s1	10

(I) CCC(=O)Nc1cc(-c2sc(-c3ccc(S(C)(=O)=O)cc3)nc2-c2cccc(Cl)c2)ccn1
(II) CCc1nc(-c2cccc(Cl)c2)c(-c2ccnc(NC3CCCCC3)c2)s1
Compare the recorded IC50 of I and II ; state which is larger. Your choice should be expressed through its label.
I

----------
reportedEndpoint: melting point

# lookup: melting point of `Cc1cccc(-c2nc(NC(=O)c3ccc(Cl)nc3)sc2-c2ccnc(NC3CCCCC3)c2)c1`
255 to 256 °C

Try this compound next: `CCc1nc(-c2cccc(C)c2)c(-c2ccnc(NC(=O)c3cc(Cl)cc(Cl)c3)c2)s1`
77 to 78 °C

Try this compound next: Cc1cccc(-c2nc(-c3ccc([S+](C)[O-])cc3)sc2-c2ccnc(C)c2)c1 (centres unmarked)
128 to 130 °C

Try this compound next: `CCc1nc(-c2cccc(Br)c2)c(-c2ccnc(NC(=O)OC(C)(C)C)c2)s1`
172 to 174 °C

Try this compound next: `Cc1cccc(-c2nc(N)sc2-c2ccnc(NC3CCCC3)c2)c1`
169 to 170 °C

Try this compound next: `Cc1cccc(-c2nc(NC(=O)c3ccc(C)nc3)sc2-c2ccnc(NC3CCCC3)c2)c1`
213 to 214 °C

Try this compound next: `COc1ccc(-c2nc(C)sc2-c2ccnc(NC(=O)Cc3ccccc3)c2)cc1`
118 to 120 °C

Try this compound next: CCC(=O)Nc1cc(-c2sc(C(C)OC(=O)c3ccccc3)nc2-c2cccc(Cl)c2)ccn1 (centres unmarked)
124 to 127 °C

----------
reportedEndpoint: melting point

Field: example entries. Status: answers known.
Cc1cccc(-c2nc(N3CCN(c4ccccc4)C3=O)sc2-c2ccnc(C)c2)c1	180 to 182 °C
CC(=O)Nc1nc(-c2ccc(C(C)(C)C)cc2)c(-c2ccncc2)s1	280 to 281 °C
Cc1cc(-c2sc(N)nc2-c2ccc(F)cc2)ccn1	233 to 234 °C
Cc1cccc(-c2nc(-c3ccc(S(C)(=O)=O)cc3)sc2-c2ccnc(NC3CCCC3)c2)c1	154 to 156 °C
COc1ccc(-c2nc(NC(=O)c3ccccc3)sc2-c2ccnc(N)c2)cc1	219 to 222 °C
CCCc1cccc(-c2nc(CC)sc2-c2ccnc(NC(=O)CC)c2)c1	124 to 125 °C

# lookup: melting point of `COc1ccc(-c2nc(N)sc2-c2ccnc(N)c2)cc1`
251 to 254 °C

Try this molecule next: `CCCc1cccc(-c2nc(CC)sc2-c2ccnc(N)c2)c1`
72 to 74 °C

Try this molecule next: `Cc1cccc(-c2nc(-c3ccc(F)cc3)sc2-c2ccnc(NCc3ccccc3)c2)c1`
143 to 146 °C

Try this molecule next: `Cc1cc(C)cc(-c2nc(NC(=O)C(C)C)sc2-c2ccncc2)c1`
270 to 272 °C

Try this molecule next: `CCc1nc(-c2cccs2)c(-c2ccnc(N)c2)s1`
159 to 160 °C

Try this molecule next: `Cc1cccc(-c2nc(-c3ccc(S(C)(=O)=O)cc3)sc2-c2ccnc(NC(=O)c3ccc4ccccc4c3)c2)c1`
231 to 233 °C

Try this molecule next: `CCCNC(=O)Nc1nc(-c2cc(C)cc(C)c2)c(-c2ccncc2)s1`
128 to 130 °C

Try this molecule next: `CCC(=O)Nc1cc(-c2sc(C3CCNCC3)nc2-c2cccc(Cl)c2)ccn1.Cl.Cl`
202 to 203 °C

Try this molecule next: `Cc1cccc(-c2nc(-c3ccc(F)cc3)sc2-c2ccnc(N)c2)c1`
160 to 162 °C

Try this molecule next: `Cc1cccc(-c2nc(NC(=O)c3cccnc3)sc2-c2ccnc(NC3CCCCC3)c2)c1`
201 to 203 °C

Try this molecule next: `CNc1nc(-c2ccc3c(c2)CCC3)c(-c2cccnc2)s1`
172 to 173 °C

Try this molecule next: `CCc1nc(-c2cccc(Br)c2)c(-c2ccnc(N)c2)s1`
132 to 134 °C

----------
reportedEndpoint: melting point

CC(F)(F)c1nc(-c2cccc(Cl)c2)c(-c2ccnc(N)c2)s1 [H 101-2]	131 to 132 °C
CCc1nc(-c2ccc(Cl)cc2)c(-c2ccnc(N)c2)s1 [H 20-7]	136 to 137 °C
CC(=O)Nc1cc(-c2sc(-c3ccc(S(C)(=O)=O)cc3)nc2-c2cccc(Cl)c2)ccn1 [H 58-6]	216 to 217 °C

# lookup: melting point of Cc1cccc(-c2nc(-c3ccccc3Cl)sc2-c2ccnc(NCCCc3ccccc3)c2)c1 [D 19-16]
101 to 102 °C

Try this molecule next: CCc1nc(-c2cccc(C(=O)O)c2)c(-c2ccnc(N)c2)s1 [H 77]
273 to 274 °C

----------
reportedEndpoint: melting point

Field: example entries. Status: answers known.
Cc1cccc(-c2nc(-c3ccccc3Cl)sc2-c2ccnc(NCc3ccccc3)c2)c1	84 to 88 °C
Cc1cccc(-c2nc(-c3ccc(S(C)(=O)=O)cc3)sc2-c2ccnc(SCc3ccccc3)c2)c1	182 to 185 °C
CCc1nc(-c2cccc(Cl)c2)c(-c2ccnc(NC3CCCC3)c2)s1	110 to 111 °C
Cc1cccc(-c2nc(-c3ccc(S(C)(=O)=O)cc3)sc2-c2cc(C)nc(C)c2)c1	182 to 184 °C
Cc1cc(C)cc(-c2nc(NC(=O)Nc3ccccc3)sc2-c2cc(C)nc(C)c2)c1	219 to 222 °C

Here's the next entry for you.
# lookup: melting point of `CSc1ccc(-c2nc(-c3cccc(C)c3)c(-c3ccnc(NC(=O)c4ccc5ccccc5c4)c3)s2)cc1`
184 to 186 °C

----------
Recorded melting point, one value per entry.

Field: example entries. Status: answers known.
COc1ccc(C(=O)Nc2nc(-c3cccc(C)c3)c(-c3ccnc(NC4CCCCC4)c3)s2)cn1	191 to 192 °C
CCc1nc(-c2cccc(C)c2)c(-c2ccnc(NC(=O)c3ccc(OC)cc3)c2)s1	124 to 125 °C
CCCC(=O)Nc1cc(-c2sc(CC)nc2-c2cccc(Cl)c2)ccn1	119 to 120 °C
CSc1ccc(-c2nc(-c3cccc(C)c3)c(-c3ccnc(NCCc4ccccc4)c3)s2)cc1	137 to 139 °C
Nc1nc(-c2ccc(F)cc2)c(-c2ccnc(F)c2)s1	243 to 245 °C
CCC(=O)Nc1cc(-c2sc(CC)nc2-c2ccc(F)c(C)c2)ccn1	105 to 107 °C

# lookup: melting point of `Cc1cccc(-c2nc(-c3ccc(S(C)(=O)=O)cc3)sc2-c2ccnc(NCCCc3ccccc3)c2)c1`
167 to 168 °C

Try this molecule next: `Cc1nc(-c2cccc(Cl)c2)c(-c2ccnc(N)c2)s1`
142 to 143 °C

Try this molecule next: `CCCc1nc(-c2cccc(C)c2)c(-c2ccnc(NC(=O)CCc3ccccc3)c2)s1`
103 to 104 °C

Try this molecule next: `Cc1cccc(-c2nc(-c3ccc(S(C)(=O)=O)cc3)sc2-c2ccnc(NCc3cccs3)c2)c1`
107 to 109 °C
